molecular target: Human CD33 (human, UniProt P20138 18-259); assay: BLI (Octet) as in Example 1, His-tagged VHH, human CD33
Sequence (P20138 18-259 limits assumed): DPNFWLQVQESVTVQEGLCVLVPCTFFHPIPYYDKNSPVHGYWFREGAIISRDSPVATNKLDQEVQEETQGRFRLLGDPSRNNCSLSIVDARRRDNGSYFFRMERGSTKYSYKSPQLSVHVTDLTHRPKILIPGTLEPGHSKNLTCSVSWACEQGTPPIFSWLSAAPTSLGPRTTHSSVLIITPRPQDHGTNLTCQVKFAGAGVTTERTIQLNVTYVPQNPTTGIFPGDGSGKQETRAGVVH
attribute measured: Kd (nM)

These solved cases illustrate the format of a correct answer.
binder | Kd [nM]
33-4 (VHH, not shown: C-terminal His-tag) VHH: QVQLVESGGGSVQPGGSLRLSCEASGSIFSIAHMGWYRQAPGKQRELVAVISSGGRTNYVDSVKGRFTISRDNAKNTVYLQMNSLKAEDTAVYFCNVAVVGGPRFDYWGQGTQVTVSS | 0.995
33-2 (VHH, not shown: C-terminal His-tag) VHH: QVQLVESGGGLVQAGGSLRLSCTASANILRTAPMAWYRQAPGKQREFVALITADGTTDYQESVKGRFTTSRDNAKNTVYLQMNSLQSEDTARYFCKVYSYWGQGTQVTVSS | 0.753

P: 33-8 (VHH, not shown: C-terminal His-tag) VHH: EVQLMESGGGLVQAGGSLRLSCAASGRTVSTYVMGWFRQAPGKEREFVAEINRIGDTLYNRTSVKGRFTISRDNAKNTVYLQMNSLEPEDTAVYSCAARVIGTSTYNYWGQGTQVTVSS
Q: 33-1 (VHH, not shown: C-terminal His-tag) VHH: QVQLVESGGGLVQTGGSLRLSCAASGGTFTNYAMGWFREAPGKEREFVAGINNNGDTLYNTNSVKGRFTISRDNAKNTVYLHMNSLKLEDTAVYYCAANLKGASWYSANYDYWGQGTQVTVSS
(Q) Between the entries labelled P and Q , which has a larger Kd value on record? Bench note: the answer is the label of the chosen record.
(A) Q
